Please provide measured ΔTm for the entries that follow.
System: UDP-3-O-acyl-N-acetylglucosamine deacetylase (Pseudomonas aeruginosa (strain ATCC 15692 / PAO1 / 1C / PRS 101 / LMG12228)), P47205 [C40S]
Sequence (whole entry): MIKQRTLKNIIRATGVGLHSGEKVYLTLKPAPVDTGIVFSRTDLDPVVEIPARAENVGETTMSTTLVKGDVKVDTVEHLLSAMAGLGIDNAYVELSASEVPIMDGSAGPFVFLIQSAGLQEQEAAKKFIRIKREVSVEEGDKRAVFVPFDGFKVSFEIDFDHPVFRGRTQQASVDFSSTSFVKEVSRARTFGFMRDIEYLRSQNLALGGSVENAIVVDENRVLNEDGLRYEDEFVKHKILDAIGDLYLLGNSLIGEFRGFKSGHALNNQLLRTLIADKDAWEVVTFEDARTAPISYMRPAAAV
Answers are plain numbers, in °C.

The cases that follow already have their ΔTm on record.
{"columns": ["smilesRepr", "measurementName", "valueUnit", "readoutValue"],
 "data": [
  ["C[C@@](CCN1Cc2cc(C#CC#CC3(N)CC3)sc2C1=O)(C(=O)NO)S(C)(=O)=O.Cl", "ΔTm", "°C", 12.5],
  ["COc1ccc(-c2cc3c(s2)C(=O)N(CC[C@](C)(C(=O)NO)S(C)(=O)=O)C3)c(F)c1", "ΔTm", "°C", 12.4],
  ["C[C@@](CCN1Cc2cc(C#Cc3ccc(CNS(C)(=O)=O)cc3)cn2C1=O)(C(=O)NO)S(C)(=O)=O", "ΔTm", "°C", 13.2],
  ["COc1ccc(-c2ccc3c(c2)CN(CC[C@](C)(C(=O)NO)S(C)(=O)=O)C3=O)c(F)c1", "ΔTm", "°C", 11],
  ["COc1ccc(-c2cc3n(c2)C(=O)N(CC[C@](C)(C(=O)NO)S(C)(=O)=O)C3)c(F)c1", "ΔTm", "°C", 11.5],
  ["C[C@@](CCN1Cc2cc(C#Cc3ccc([C@H](O)CO)cc3)sc2C1=O)(C(=O)NO)S(C)(=O)=O", "ΔTm", "°C", 14.3]
]}

Each molecule below has a reported value. Please supply its ΔTm.
1. CC(C)(O)c1ccc(C#Cc2cc3n(c2)C(=O)N(CC[C@](C)(C(=O)NO)S(C)(=O)=O)C3)cc1
2. CC(C)(O)C#CC#Cc1cc2n(c1)C(=O)N(CC[C@](C)(C(=O)NO)S(C)(=O)=O)C2
3. C[C@@](CCN1Cc2cc(C#Cc3ccc(CN4CCOCC4)cc3)ccc2C1=O)(C(=O)NO)S(C)(=O)=O
4. C[C@@](CCN1Cc2cc(C#Cc3ccc(C4(O)COC4)cc3)cn2C1=O)(C(=O)NO)S(C)(=O)=O
5. CC(C)(O)C#CC#Cc1cc2c(s1)C(=O)N(CC[C@](C)(C(=O)NO)S(C)(=O)=O)C2
6. COc1ccc(-c2cn(CC[C@@](C)(C(=O)NO)S(C)(=O)=O)c(=O)o2)c(F)c1

Solution:
1: 13.7; 2: 12.3; 3: 13.8; 4: 13; 5: 13.6; 6: 3.7

Record ΔTm per entry; entries follow.
1. C[C@@](CCN1Cc2cc(C#Cc3ccc([C@H](O)CO)cc3)cn2C1=O)(C(=O)NO)S(C)(=O)=O
2. C[C@@](CCN1Cc2cc(C#Cc3ccc(C4(CO)CC4)cc3)cn2C1=O)(C(=O)NO)S(C)(=O)=O
3. C[C@@](CCN1Cc2cc(C#CC#CC3(O)COC3)ccc2C1=O)(C(=O)NO)S(C)(=O)=O
4. C[C@@](CCN1Cc2cc(C#CC#CC3(O)COC3)cn2C1=O)(C(=O)NO)S(C)(=O)=O
5. C[C@@](CCN1Cc2cc(C#CC#CC3(CO)CC3)cn2C1=O)(C(=O)NO)S(C)(=O)=O

Solution:
[12.7, 13.6, 11.6, 11.3, 12.5]
